propertyName: melting point

Q) Report melting point for `CN(c1ccc(O)cc1)S(=O)(=O)c1cccs1` please.
A) 149 to 151 °C

Q) # melting point lookup, item Cc1cc2n(n1)CC(C(F)(F)F)CN2 (stereo not given)
A) 194 to 196 °C

Q) Would you mind telling me what melting point value was observed for `CCOC(=O)c1cc(N)c2c(c1)OCO2` ?
A) 68 to 70 °C

Q) Give its melting point value. Item: CC(C)CC(CNC(=O)OC(C)(C)C)C(=O)O (stereo not given)
A) 76 to 78 °C

Q) // returns reported melting point for input `Oc1ccc(-n2cnnn2)cc1`
A) 209 to 211 °C

###

propertyName: melting point

# example entries with known answers
- compound: "CCOc1ccc(S(=O)(=O)Cl)c2ccccc12"
  propertyName: "melting point"
  testResult: "98 to 100 °C"
- compound: "Nc1cc(-c2ccccc2F)no1"
  propertyName: "melting point"
  testResult: "118 to 120 °C"
- compound: "O=C(O)c1cnn2c(-c3ccccc3)ccnc12"
  propertyName: "melting point"
  testResult: "228 to 230 °C"
- compound: "O=C(NC(Cc1ccccc1)C(=O)O)c1cccs1 (stereo unspecified)"
  propertyName: "melting point"
  testResult: "202 to 204 °C"
- compound: "O=C(O)CCCCOc1ccc2oc3ccccc3c2c1"
  propertyName: "melting point"
  testResult: "114 to 116 °C"

Q) Fill in: melting point of `Nc1sc2c(c1C(=O)c1ccc(Cl)cc1)CCCC2` is ___
A) 139 to 141 °C

###

Catalogue of melting point readings, one per entry.

Q) Using the record for `CCN1C(=O)C(=O)c2cc(Br)ccc21` , report its melting point.
A) 144 to 146 °C

Q) Returns the measured melting point for the input compound. Input: `O=C(O)c1cccc(NS(=O)(=O)c2ccc(Cl)c(Cl)c2)c1`
A) 254 to 256 °C

Q) // query melting point value for entry `NNC(=O)Cc1cccnc1`
A) 99 to 101 °C

Q) Please look up its melting point: `COC(=O)c1sc(N2CCOCC2)nc1N`
A) 156 to 158 °C

###

Overview of recorded melting point for various compounds

- compound: "CC(C)Cc1ccc(C(=O)CCC(=O)O)cc1"
  testResult: "113 to 115 °C"
- compound: "ClCc1nnc(-c2ccc(Cl)cc2Cl)o1"
  testResult: "87 to 89 °C"
- compound: "O=C(O)c1ccnc(Cl)c1[N+](=O)[O-]"
  testResult: "222 to 224 °C"
- compound: "Nc1ccc(C(=O)N2CCCC2c2ccccc2)cc1 (centres undefined)"
  testResult: "120 to 122 °C"
- compound: "NC1CCN(C(=O)C2CCCCC2)CC1"
  testResult: "78 to 80 °C"
- compound: "CNc1cc(-c2ccccc2)[nH]n1"
  testResult: "122 to 124 °C"
- compound: "CC(=O)c1sc(-c2ccc(Br)cc2)nc1C"
  testResult: "103 to 105 °C"
- compound: "CCC(Oc1ccccc1Cl)C(=O)O (centres undefined)"
  testResult: "82 to 84 °C"
- compound: "CCCOc1ccc(OCC(=O)O)cc1"
  testResult: "106 to 108 °C"
- compound: "O=C(O)C1Cc2nc[nH]c2C(c2ccccc2)N1 (centres undefined)"
  testResult: "209 to 211 °C"

Q) Tell me the measured melting point of `Cc1c(C(=O)O)cnn1CC(C)C` , please.
A) 109 to 111 °C

Q) Name the recorded melting point for `CS(=O)(=O)Cc1nc(=N)o[nH]1` .
A) 158 to 160 °C

Q) Query (compound): `CC(=O)N1CCC(CCl)CC1` ; field requested: melting point
A) 48 to 50 °C

Q) What value of melting point has been recorded for this entry: `CN1CCC(NCCO)CC1`
A) 37 to 39 °C

Q) Using the record for `CC(=O)CC(=O)Nc1cccc(Br)c1` , report its melting point.
A) 108 to 110 °C

Q) Which value of melting point has been reported for `COc1cc(C#N)c2ccccc2n1` in the records?
A) 133 to 135 °C

Q) Bench note: what melting point did NC(=O)C1CCCC1N (centres undefined) show?
A) 123 to 125 °C

Q) Consider the compound `CC(C)Cn1c(N)c(Br)c(=O)[nH]c1=O` and give its measured melting point.
A) 249 to 251 °C

Q) Would you mind telling me what melting point value was observed for `COc1ccc(O)c(C(N)=O)c1` ?
A) 151 to 153 °C

Q) What does the data say about its melting point? Entry: `COC(=O)c1ccc(S(=O)(=O)Cl)c(C)c1`
A) 51 to 53 °C

Taken from a melting point compilation (Tetko et al.).
